Values from patent US4088778A

- measurement-description: Acute toxicity on mice
- Format: in vivo
- test-conditions: mouse, in vivo, im, I.M., male, read-out: LD50
measured-parameter: LD50

| compound | measured-parameter | meas-value |
| --- | --- | --- |
| CC(=O)Oc1c(C)c(C)c2c(c1C)CCC(C)(CCCC(C)CCCC(C)CCCC(C)C)O2 (racemic) [TA, dl-α-tocopheryl acetate] | LD50 | > 15000 mg/kg |

###

- measurement-description: Acute toxicity on rats
- Format: in vivo
- test-conditions: rat, in vivo, ip; rats, I.P., male; read-out: LD50

| compound | LD50 |
| --- | --- |
| CC(=O)Oc1c(C)c(C)c2c(c1C)CCC(C)(CCCC(C)CCCC(C)CCCC(C)C)O2 (racemic) [TA, dl-α-tocopheryl acetate] | > 2000 mg/kg |

###

- measurement-description: Acute toxicity on rats
- Format: in vivo
- test-conditions: rat, in vivo, im; rats, I.M., male; read-out: LD50

| compound | LD50 |
| --- | --- |
| CC(=O)Oc1c(C)c(C)c2c(c1C)CCC(C)(CCCC(C)CCCC(C)CCCC(C)C)O2 (racemic) [TA, dl-α-tocopheryl acetate] | > 10000 mg/kg |
